Tested on: SW982
Assay: relative viability vs DMSO control (72 h) (fraction); higher = more viable cells
Settings: 0.01372 µM
Consider the following molecules and their measured relative viability readings.
Readout Name: relative viability

sample_smiles=COc1cc2c(Oc3ccc4[nH]c(C)cc4c3F)ncnc2cc1OCCCN1CCCC1 result=1.06
sample_smiles=CCCS(=O)(=O)Nc1ccc(F)c(C(=O)c2c[nH]c3ncc(-c4ccc(Cl)cc4)cc23)c1F result=1.06
sample_smiles=CNC(=O)c1cc(Oc2ccc(NC(=O)Nc3ccc(Cl)c(C(F)(F)F)c3)c(F)c2)ccn1 result=1.06
sample_smiles=C=CC(=O)Nc1cccc(Oc2nc(Nc3ccc(N4CCN(C)CC4)cc3)nc3ccsc23)c1 result=1.02
sample_smiles=O=C(Nc1cnn2ccc(N3CCC[C@@H]3c3cc(F)ccc3F)nc12)N1CC[C@H](O)C1 result=1.07
sample_smiles=Nc1cc(C(F)(F)F)c(-c2cc(N3CCOCC3)nc(N3CCOCC3)n2)cn1 result=1.04
sample_smiles=N#CC[C@H](C1CCCC1)n1cc(-c2ncnc3[nH]ccc23)cn1 result=0.939
sample_smiles=Cc1nc(-c2cn3c(n2)-c2ccc(-c4cnn(C(C)(C)C(N)=O)c4)cc2OCC3)n(C(C)C)n1 result=1.02

----------
Tested on: MES-SA
Test: relative viability vs DMSO control (72 h) (fraction); higher = more viable cells
Conditions: 0.3704 µM
Counter-ions that a name gives are not always drawn.
Kindly apply the following: 1 if relative viability is less than 0.9, -1 in every other case.

compound=CCN1CCN(Cc2ccc(Nc3ncc(F)c(-c4cc(F)c5nc(C)n(C(C)C)c5c4)n3)nc2)CC1 group_label=1
compound=C[C@@H](c1ccc2nccn2c1)n1nnc2ncc(-c3cnn(C)c3)nc21 group_label=-1
compound=COc1cc2c(Oc3ccc4[nH]c(C)cc4c3F)ncnc2cc1OCCCN1CCCC1 group_label=-1
compound=Cn1cnc2c(F)c(Nc3ccc(Br)cc3F)c(C(=O)NOCCO)cc21 group_label=1
compound="COc1cccc2c1C(=O)c1c(O)c3c(c(O)c1C2=O)C[C@@](O)(C(=O)CO)C[C@@H]3O[C@H]1C[C@H](N)[C@H](O)[C@H](C)O1 [Doxorubicin Hydrochloride]" group_label=1
compound=C=CC(=O)N1CCC[C@@H](n2nc(-c3ccc(Oc4ccccc4)cc3)c3c(N)ncnc32)C1 group_label=1
compound=C=CC(=O)Nc1cccc(Oc2nc(Nc3ccc(N4CCN(C)CC4)cc3)nc3ccsc23)c1 group_label=-1
compound=CN1CCC(COc2cnc(-c3cccc(Cn4nc(-c5cccc(C#N)c5)ccc4=O)c3)nc2)CC1 group_label=-1

----------
System: MES-SA
Assay: relative viability vs DMSO control (72 h) (fraction); higher = more viable cells
Details: 0.01372 µM
Consider the following compounds and their measured relative viability readings.
Readout Name: relative viability

sample_smiles=C[C@@H]1COCCN1c1cc(-c2ccnn2C)c2ccnc(-c3ccn[nH]3)c2n1 target_under_test=MES-SA result=0.878
sample_smiles=Cc1nc(-c2cn3c(n2)-c2ccc(-c4cnn(C(C)(C)C(N)=O)c4)cc2OCC3)n(C(C)C)n1 target_under_test=MES-SA result=0.797
sample_smiles=Cc1cc(Nc2ncnc3ccc(NC4=NC(C)(C)CO4)cc23)ccc1Oc1ccn2ncnc2c1 target_under_test=MES-SA result=0.948
sample_smiles=Cc1ccc(NC(=O)c2ccc(CN3CCN(C)CC3)cc2)cc1Nc1nc(-c2cccnc2)cs1 target_under_test=MES-SA result=0.952
sample_smiles=COc1cc2nccc(Oc3ccc(NC(=O)Nc4cc(C)on4)c(Cl)c3)c2cc1OC target_under_test=MES-SA result=0.94
sample_smiles=C=CC(=O)N1CCC[C@@H](n2nc(-c3ccc(Oc4ccccc4)cc3)c3c(N)ncnc32)C1 target_under_test=MES-SA result=0.966
sample_smiles=C=CC(=O)Nc1cccc(Oc2nc(Nc3ccc(N4CCN(C)CC4)cc3)nc3ccsc23)c1 target_under_test=MES-SA result=0.918
sample_smiles=C[C@@H]1CCN(C(=O)CC#N)C[C@@H]1N(C)c1ncnc2[nH]ccc12 target_under_test=MES-SA result=0.966
sample_smiles=Cc1ccc(F)c(NC(=O)Nc2ccc(-c3cccc4[nH]nc(N)c34)cc2)c1 target_under_test=MES-SA result=0.974
sample_smiles=COc1cc2c(Oc3ccc4[nH]c(C)cc4c3F)ncnc2cc1OCCCN1CCCC1 target_under_test=MES-SA result=0.967
sample_smiles=CNC(=O)c1cc(Oc2ccc(NC(=O)Nc3ccc(Cl)c(C(F)(F)F)c3)c(F)c2)ccn1 target_under_test=MES-SA result=0.968
sample_smiles=CN1CCN(c2ccc3nc(-c4c(N)c5c(F)cccc5[nH]c4=O)[nH]c3c2)CC1 target_under_test=MES-SA result=0.948

----------
Consider the following molecules and their measured relative viability readings.
Test system: VA-ES-BJ
Experiment: relative viability vs DMSO control (72 h) (fraction); higher = more viable cells
Details: 0.04115 µM
Readout Name: relative viability

sample_smiles=O=C(Cc1ccc(-c2ccc(OCCN3CCOCC3)cc2)cn1)NCc1ccccc1 result=0.584
sample_smiles=COc1cc2nccc(Oc3ccc(NC(=O)Nc4cc(C)on4)c(Cl)c3)c2cc1OC result=1.05
sample_smiles=Cn1cnc2c(F)c(Nc3ccc(Br)cc3F)c(C(=O)NOCCO)cc21 result=0.966
sample_smiles=Cc1ccc(NC(=O)c2ccc(CN3CCN(C)CC3)cc2)cc1Nc1nc(-c2cccnc2)cs1 result=1.05

----------
Consider the following molecules and their measured relative viability readings.
System: SW1353
Test: relative viability vs DMSO control (72 h) (fraction); higher = more viable cells
Settings: 3.333 µM
Readout Name: relative viability

sample_smiles=CC(C)N1CCN(Cc2cnc(-c3cc(-c4cccc5[nH]ccc45)cc4[nH]ncc34)o2)CC1 result=0.721
sample_smiles=C=CC(=O)N1CCC([C@@H]2CCNc3c(C(N)=O)c(-c4ccc(Oc5ccccc5)cc4)nn32)CC1 result=0.828
sample_smiles=CNC(=O)c1cc(Oc2ccc(NC(=O)Nc3ccc(Cl)c(C(F)(F)F)c3)c(F)c2)ccn1 result=0.919
sample_smiles=C[C@@H](c1ccc2nccn2c1)n1nnc2ncc(-c3cnn(C)c3)nc21 result=0.987
sample_smiles=O=C(Cc1ccc(-c2ccc(OCCN3CCOCC3)cc2)cn1)NCc1ccccc1 result=0.462
sample_smiles=CN1CCC(COc2cnc(-c3cccc(Cn4nc(-c5cccc(C#N)c5)ccc4=O)c3)nc2)CC1 result=0.977
sample_smiles=N#CC[C@H](C1CCCC1)n1cc(-c2ncnc3[nH]ccc23)cn1 result=1.02
sample_smiles=CC(C)(C)c1cc(NC(=O)Nc2ccc(-c3cn4c(n3)sc3cc(OCCN5CCOCC5)ccc34)cc2)no1 result=0.874
sample_smiles=COc1cc2/c(=N/c3ccc(Br)cc3F)nc[nH]c2cc1OCC1CCN(C)CC1 result=0.558

----------
Test system: RD
Assay: relative viability vs DMSO control (72 h) (fraction); higher = more viable cells
Conditions: 0.04115 µM
Consider the following compounds and their measured relative viability readings.
Readout Name: relative viability

sample_smiles=COc1c(OCCCN2CCOCC2)ccc2c1N=C(NC(=O)c1cnc(N)nc1)N1CCN=C21 target_under_test=RD result=0.61
sample_smiles=Cc1cnc(Nc2ccc(OCCN3CCCC3)cc2)nc1Nc1cccc(S(=O)(=O)NC(C)(C)C)c1 target_under_test=RD result=1.14
sample_smiles=Cn1cnc2c(F)c(Nc3ccc(Br)cc3F)c(C(=O)NOCCO)cc21 target_under_test=RD result=0.746
sample_smiles=C=CC(=O)N1CCC([C@@H]2CCNc3c(C(N)=O)c(-c4ccc(Oc5ccccc5)cc4)nn32)CC1 target_under_test=RD result=0.96

----------
Test system: HT1080
Test: relative viability vs DMSO control (72 h) (fraction); higher = more viable cells
Settings: 0.00051 µM
Readout Name: relative viability

molecule=COCc1c(-c2cc3cc(C)cc(OC)c3s2)c2c(N)ncnn2c1CN1CCNC(=O)C1 result=1.09
molecule=CO[C@H]1C[C@@H]2CC[C@@H](C)[C@@](O)(O2)C(=O)C(=O)N2CCCC[C@H]2C(=O)O[C@H]([C@H](C)C[C@@H]2CC[C@@H](OP(C)(C)=O)[C@H](OC)C2)CC(=O)[C@H](C)/C=C(\C)[C@@H](O)[C@@H](OC)C(=O)[C@H](C)C[C@H](C)/C=C/C=C/C=C/1C result=1.08
molecule=Nc1cc(C(F)(F)F)c(-c2cc(N3CCOCC3)nc(N3CCOCC3)n2)cn1 result=1.02
molecule=COc1cc2c(Oc3ccc4[nH]c(C)cc4c3F)ncnc2cc1OCCCN1CCCC1 result=1.08
molecule="CC(C)NC(=O)C1CCC(n2c(NC(=O)c3ccc(F)cc3)nc3ccc(CN4CCC(C(C)(C)O)CC4)cc32)CC1 (configuration not stated)" result=1.09
molecule=Cc1cnc(Nc2ccc(OCCN3CCCC3)cc2)nc1Nc1cccc(S(=O)(=O)NC(C)(C)C)c1 result=1.03
molecule=CNC(=O)c1ccc(-c2cnc3ncc(Cc4ccc5ncccc5c4)n3n2)cc1F result=1.06
